- target or system: UniProtKB P27487
- assay protocol: Determination of IC50 against DP IV (hydrolysis of Gly-Pro-pNA)
- measurement context: compounds obtained by preparative synthesis
pIC50: −log10 of the molar value.
Class met: pIC50 at least 7. Class not met: pIC50 below 7.

Use the examples below as a reference point.
CC(C)(C)CCn1cnc(-c2ccc(Cl)cc2Cl)c1CN [Example 23b] :: not met
CCOc1ccccc1Cn1cnc(-c2ccc(Cl)cc2Cl)c1CN [Example 128b] :: met

Now take the following molecule into account.
[Q] Can CC(C)(C)Cn1cnc(-c2ccc(Cl)cc2Cl)c1CN [Example 11b] be said to have pIC50 at or above 7?
[A] not met

====

A collection of molecules and their measured Cytotox 100 μM (%) HEPG2
- Tested on: liver cell carcinoma cell line Hep-G2
- assay protocol: Cytotoxicity screening and LD50 determination on Hep-G2 (LDH, CytoTox-One)
- Type: cell-based
- measurement context: 100 μM, 24 h, LDH activity in cell culture media, lysed untreated cells = 100%
Numeric only. Scale: %

For orientation, consider the following solved cases.
COc1cccc(Cn2cnc(-c3ccc(Cl)cc3Cl)c2CN)c1 [Example 59b] :: 1.2
CC(C)(C)Cn1cnc(-c2ccc(Cl)cc2Cl)c1CN [Example 11b] :: 4.6

Next item in the queue.
[Q] I'd like to know its Cytotox 100 μM (%) HEPG2. The molecule in question is NCc1c(-c2ccc(Cl)cc2Cl)ncn1CCc1ccccc1Cl [Example 21b]
[A] 97.1

====

- assay protocol: Bioavailability studies (pharmacokinetics after oral and intraarterial administration)
- Assay type: in vivo, rat
- measurement context: male, Wistar (Crl:WI), rat, plasma, 3 mg/kg, male Wistar rats, intraarterial 3 mg/kg, hydrochloride salt, Mean ± SD; N = 4-6; read-out: Half-life (converted)
property label: half-life
Mention the unit after the number when you answer.

[Q] What half-life value was documented for this molecule, NCc1c(-c2ccc(Cl)cc2Cl)ncn1Cc1ccsc1 [Example 130b] ?
[A] 5.5 h

[Q] # lookup: half-life of NCc1c(-c2ccc(Cl)cc2Cl)ncn1Cc1cccnc1 [Example 121b]
[A] 1.98 h

[Q] I have this molecule here, NCc1c(-c2ccc(Cl)cc2Cl)ncn1Cc1ccccc1 [Example 24b] , and I need its recorded half-life.
[A] 2.94 h

[Q] Returns the measured half-life for the input molecule. Input: NCc1c(-c2ccc(Cl)cc2Cl)ncn1Cc1ccccn1 [Example 39b]
[A] 1.6 h

====

# pIC50 listing for each entry below
- target or system: DP IV (Homo sapiens, UniProt P27487)
- assay protocol: DP IV inhibition IC50, parallel-synthesis compounds tested directly following synthesis (without purification)
- Format: biochemical
- Design: IC50 DP4; other: tested directly following parallel synthesis, without purification; compounds of formula (Ib) from parallel synthesis, tested directly following synthesis
- measurement context: tested directly following parallel synthesis, without purification; read-out: IC50 DP4
FYI, pIC50 means -log10 of a concentration in mol per litre.

Look over these answered cases.
NCc1c(-c2ccc(F)cc2F)ncn1Cc1cc(F)ccc1F [Example 85a] :: 4.44
CCOc1ccccc1Cn1cnc(-c2ccc(F)cc2Cl)c1CN [Example 18a] :: 5.19
CCCn1cnc(-c2ccc(F)cc2Cl)c1CN :: 4.31
NCc1c(-c2ccc(Cl)cc2Cl)ncn1Cc1cccnc1 [Example 66a] :: 7.00

[Q] Please tell me: pIC50 of NCc1c(-c2ccc(F)cc2Cl)ncn1Cc1c(F)cccc1Cl [Example 13a] , system DP IV (Homo sapiens, UniProt P27487)?
[A] 4.44

[Q] Give pIC50 (DP IV (Homo sapiens, UniProt P27487)) of the following molecule: CCOc1ccccc1Cn1cnc(-c2ccc(C)cc2C)c1CN [Example 70a]
[A] 4.79

[Q] Please provide the recorded pIC50 for NCc1c(-c2ccc(F)cc2Cl)ncn1Cc1ccc2c(c1)OCO2 [Example 16a] , tested on DP IV (Homo sapiens, UniProt P27487).
[A] 4.55

[Q] Record NCc1c(-c2ccc(F)cc2Cl)ncn1Cc1cccnc1 [Example 31a] : what is its pIC50 with DP IV (Homo sapiens, UniProt P27487)?
[A] 5.26

[Q] Form field - read-out: pIC50; system: DP IV (Homo sapiens, UniProt P27487); submitted item: Cc1ccc(-c2ncn(Cc3ccsc3)c2CN)c(C)c1 [Example 67a]
[A] 4.37

[Q] Requested read-out pIC50, target or system DP IV (Homo sapiens, UniProt P27487), entry NCc1c(-c2ccc(Cl)cc2Cl)ncn1Cc1cc(F)ccc1F [Example 61a]
[A] 5.72

====

- target or system: DP IV (Homo sapiens, UniProt P27487)
- assay protocol: DP IV inhibition IC50, parallel-synthesis compounds tested directly following synthesis (without purification)
- Format: biochemical
- Parameters: IC50 DP4; other: tested directly following parallel synthesis, without purification; compounds of formula (Ib) from parallel synthesis, tested directly following synthesis
- measurement context: DP IV inhibition; compounds of formula (Ib) from parallel synthesis, tested directly following synthesis (without purification); read-out: IC50
Threshold-based label: IC50 under 20 µM gives TRUE, IC50 not under 20 µM gives FALSE.

Illustrative cases are given below, each with its answer.
NCCc1c(-c2ccc(Cl)cc2Cl)ncn1CCc1cccc(Cl)c1 [37b] :: FALSE
COc1ccc(Cn2cnc(-c3ccc(Cl)cc3Cl)c2CN)cc1 [35b] :: TRUE
NCc1c(-c2ccc(Cl)cc2Cl)ncn1CCN1CCCCC1 [58b] :: FALSE

[Q] Is the reported IC50 for COc1ccc(Cn2cnc(-c3ccc(Cl)cc3Cl)c2CN)c(OC)c1 strictly below 20 µM?
[A] TRUE

[Q] Identify whether the compound CCCn1cnc(-c2ccc(Cl)cc2Cl)c1CN [86b] records IC50 below 20 µM.
[A] TRUE

[Q] A record lists Clc1ccc(-c2ncn(CCc3ccccc3Cl)c2C2CNC2)c(Cl)c1 [117b] . Is its IC50 below 20 µM?
[A] FALSE

[Q] Take the compound CC(N)c1c(-c2ccc(Cl)cc2Cl)ncn1CCc1cccc(Cl)c1 (stereo not shown) [64b] and say whether its IC50 is less than 20 µM.
[A] FALSE

[Q] Find out if reported IC50 for NCc1c(-c2ccc(Cl)cc2Cl)ncn1Cc1ccc(OC(F)(F)F)cc1 [97b] is less than 20 µM
[A] TRUE

[Q] Field: below-cutoff. Rule: recorded IC50 strictly less than 20 µM. Subject: NCCCc1c(-c2ccc(Cl)cc2Cl)ncn1CCNc1ccc([N+](=O)[O-])cn1 [74b]
[A] TRUE

[Q] Lab log: compare recorded IC50 with 20 µM; is it strictly lower for Cc1ccccc1Cn1cnc(-c2ccc(Cl)cc2Cl)c1C(C)N (stereo not shown) [Example 15b] ?
[A] TRUE

[Q] Bench note: check whether CCCCCn1cnc(-c2ccc(Cl)cc2Cl)c1CN [Example 12b] shows IC50 below 20 µM
[A] TRUE

[Q] Decide: IC50 of NCc1c(-c2ccc(Cl)cc2Cl)ncn1CCNc1ccccc1 [41b] strictly below 20 µM?
[A] FALSE

[Q] Please state whether IC50 is below 20 µM for CC(N)c1c(-c2ccc(Cl)cc2Cl)ncn1Cc1ccc(F)c(F)c1 (stereo not shown) [68b]
[A] FALSE

[Q] Please state whether IC50 is below 20 µM for NCc1c(-c2ccc(Cl)cc2Cl)ncn1CCc1cccnc1
[A] TRUE

[Q] Is IC50 strictly under 20 µM for the entry CC(C)CCn1cnc(-c2ccc(Cl)cc2Cl)c1CN ?
[A] TRUE

[Q] # strict comparison: is reported IC50 < 20 µM? input = Cc1cc(Cn2cnc(-c3ccc(Cl)cc3Cl)c2CN)no1 [13b]
[A] FALSE

[Q] Lab note: IC50 threshold 20 µM. Does this compound come in strictly under it? NCc1c(-c2ccc(Cl)cc2Cl)ncn1CC(c1ccccc1)c1ccccc1 [31b]
[A] FALSE

[Q] Strictly below 20 µM in IC50? NCCc1c(-c2ccc(Cl)cc2Cl)ncn1CCNc1ccc([N+](=O)[O-])cn1 [79b]
[A] TRUE

[Q] Does this compound meet the criterion IC50 < 20 µM? CC(N)c1c(-c2ccc(Cl)cc2Cl)ncn1CCCCc1ccccc1 (stereo not shown) [106b]
[A] FALSE

[Q] I'd appreciate it if you could check whether Cc1[nH]ncc1CCCn1cnc(-c2ccc(Cl)cc2Cl)c1CN [87b] has IC50 smaller than 20 µM.
[A] TRUE

====

Overview of reported LD50 cytotox HEP-G2 across a group of compounds:
- System: liver cell carcinoma cell line Hep-G2
- assay protocol: Cytotoxicity screening and LD50 determination on Hep-G2 (LDH, CytoTox-One)
- Type: cell-based
- measurement context: 8 serial dilutions, highest concentration 1 mM
Value expressed in mM; do not type the unit.

NCc1c(-c2ccc(Cl)cc2Cl)ncn1Cc1ccsc1 [Example 130b] :: 0.21
NCc1c(-c2ccc(Cl)cc2Cl)ncn1Cc1ccccc1 [Example 24b] :: 0.18
NCc1c(-c2ccc(Cl)cc2Cl)ncn1Cc1ccccc1Cl [Example 81b] :: 0.12
COc1ccccc1Cn1cnc(-c2ccc(Cl)cc2Cl)c1CN [Example 120b] :: 0.17
CCOc1ccccc1Cn1cnc(-c2ccc(Cl)cc2Cl)c1CN [Example 128b] :: 0.14

[Q] What value of measured LD50 cytotox HEP-G2 is listed for NCc1c(-c2ccc(Cl)cc2Cl)ncn1Cc1ccccn1 [Example 39b] ?
[A] 0.74

[Q] What does the record list as LD50 cytotox HEP-G2 for NCc1c(-c2ccc(Cl)cc2Cl)ncn1Cc1ccccc1OC(F)(F)F [Example 129b] ?
[A] 0.16

[Q] Need LD50 cytotox HEP-G2 of NCc1c(-c2ccc(Cl)cc2Cl)ncn1Cc1cccnc1 [Example 121b] , thanks.
[A] 0.92
